Reference source: patent US8178873B2

# Experimental Details: Solubility measurement in n-butylbenzene
# Assay type: physicochemical
# Cond: room temperature, weight percent based on total solution weight

| Given Smiles | Solubility in butyl benzene, wt % |
| --- | --- |
| CCCCCCc1ccsc1-c1ccc2c(C#C[Si](C(C)C)(C(C)C)C(C)C)c3cc(-c4sccc4CCCCCC)ccc3c(C#C[Si](C(C)C)(C(C)C)C(C)C)c2c1 | 4.2 |
| CCc1ccc(-c2ccc3c(C#C[Si](C(C)C)(C(C)C)C(C)C)c4cc(-c5ccc(CC)s5)ccc4c(C#C[Si](C(C)C)(C(C)C)C(C)C)c3c2)s1 | 1.4 |
| Cc1ccsc1-c1ccc2c(C#C[Si](C(C)C)(C(C)C)C(C)C)c3cc(-c4sccc4C)ccc3c(C#C[Si](C(C)C)(C(C)C)C(C)C)c2c1 | 2.3 |
| CCCCCCc1ccc(-c2ccc3c(C#C[Si](C(C)C)(C(C)C)C(C)C)c4cc(-c5ccc(CCCCCC)s5)ccc4c(C#C[Si](C(C)C)(C(C)C)C(C)C)c3c2)s1 | 2.5 |
